Hey, just so you know, these numbers are from patent US20240116985A1.

Biological target: beta-catenin/TCF4 engagement (Homo sapiens)
Construct: expressed in transfected cells; host or cells: HEK293
Sequence (P35222 whole entry): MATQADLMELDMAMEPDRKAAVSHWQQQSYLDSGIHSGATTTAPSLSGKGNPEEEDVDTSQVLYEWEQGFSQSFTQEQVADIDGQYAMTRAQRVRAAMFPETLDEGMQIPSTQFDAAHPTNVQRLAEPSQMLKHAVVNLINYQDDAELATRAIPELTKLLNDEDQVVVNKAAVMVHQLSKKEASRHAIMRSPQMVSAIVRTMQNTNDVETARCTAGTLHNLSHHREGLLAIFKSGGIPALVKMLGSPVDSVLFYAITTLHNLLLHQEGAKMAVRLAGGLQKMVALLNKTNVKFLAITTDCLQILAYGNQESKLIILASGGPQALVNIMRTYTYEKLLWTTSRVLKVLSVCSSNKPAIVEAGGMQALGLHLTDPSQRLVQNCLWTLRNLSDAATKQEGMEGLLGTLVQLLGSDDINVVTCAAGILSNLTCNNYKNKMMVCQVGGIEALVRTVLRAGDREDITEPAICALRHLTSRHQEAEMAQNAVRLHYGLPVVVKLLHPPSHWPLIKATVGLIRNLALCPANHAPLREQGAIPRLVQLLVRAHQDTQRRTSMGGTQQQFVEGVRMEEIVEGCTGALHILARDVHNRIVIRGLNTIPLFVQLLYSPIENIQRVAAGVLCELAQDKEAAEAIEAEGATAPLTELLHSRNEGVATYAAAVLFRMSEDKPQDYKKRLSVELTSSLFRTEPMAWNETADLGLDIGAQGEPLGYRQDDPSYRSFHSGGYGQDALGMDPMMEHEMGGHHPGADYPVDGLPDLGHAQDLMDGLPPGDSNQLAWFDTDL
Assay: Nano-BRET target engagement assay (B-cat-Halo & TCF4-Luc in HEK293 cells)
Format: cell-based
Settings: read-out: NanoBRET IC50
Each record here notes measured pIC50.
To interpret pIC50, take it as minus log10 of a concentration measured in moles per litre.

Worked set:
{"columns": ["Compound", "Reported Endpoint", "Recorded Result"],
 "data": [
  ["COc1ccccc1C[C@H](NC(=O)[C@]12CCN(C1)C(=O)OCCCC=CCCCC1(CCCC=CC[C@]3(CCCN3C(C)=O)C(=O)N[C@@H](CC(=O)O)C(=O)N[C@@H](CC(C)(C)C)C(=O)N1)C(=O)N[C@@H](CC(=O)O)C(=O)N[C@@H](CC(=O)O)C(=O)N[C@@H](C)C(=O)N[C@@H](C)C(=O)N[C@@H](Cc1ccccc1)C(=O)N[C@@H](CC(N)=O)C(=O)N2)C(=O)N[C@@H](Cc1csc2ccccc12)C(=O)N[C@@H](CCC(N)=O)C(N)=O (stereo partly drawn)", "pIC50", 4.77],
  ["CC(=O)N1CCC[C@]12CC=CCCCC1(CCCC=CCCCOC(=O)N3CC[C@@](C(=O)N[C@@H](Cc4ccsc4)C(=O)N[C@@H](Cc4csc5ccccc45)C(=O)N[C@@H](CO)C(N)=O)(C3)NC(=O)[C@H](CC(N)=O)NC(=O)[C@H](Cc3ccccc3)NC(=O)[C@H](C)NC(=O)[C@H](C)NC(=O)[C@H](CC(=O)O)NC(=O)[C@H](CC(=O)O)NC1=O)NC(=O)[C@H](CC(C)(C)C)NC(=O)[C@H](CC(=O)O)NC2=O (stereo partly drawn)", "pIC50", 4.93]
]}

Then this compound:
[Q] Name the reported pIC50 value associated with the compound CC(=O)N1CCC[C@]12CC=CCCCC1(CCCC=CCCCOC(=O)N3CC[C@@](C(=O)N[C@@H](Cc4ccccc4Cl)C(=O)N[C@@H](Cc4csc5ccccc45)C(=O)N[C@@H](CCC(N)=O)C(N)=O)(C3)NC(=O)[C@H](CC(N)=O)NC(=O)[C@H](Cc3ccccc3)NC(=O)[C@H](C)NC(=O)[C@H](C)NC(=O)[C@H](CC(=O)O)NC(=O)[C@H](CC(=O)O)NC1=O)NC(=O)[C@H](CC(C)(C)C)NC(=O)[C@H](CC(=O)O)NC2=O (stereo partly drawn)
[A] 5.12

====

Experiment: CHI Log D procedure
Format: physicochemical
Details: pH 7.4, CHI Log D
Reported Endpoint: chromatographic logD
Reply with just the number.

Worked set:
{"columns": ["Compound", "chromatographic logD"],
 "data": [
  ["COCCOCCOCCOCCC(=O)NCCCC[C@@H]1NC(=O)[C@H](C)NC(=O)[C@H](CC(=O)O)NC(=O)[C@H](CC(=O)O)NC(=O)C2(CCCC=CCCCOC(=O)N3CC[C@@](C(=O)N[C@@H](Cc4ccsc4)C(=O)N[C@@H](Cc4csc5ccccc45)C(=O)N[C@@H](CCC(N)=O)C(N)=O)(C3)NC(=O)[C@H](CC(N)=O)NC(=O)[C@H](Cc3ccccc3)NC1=O)CCCC=CC[C@]1(CCCN1C(C)=O)C(=O)N[C@@H](CC(=O)O)C(=O)N[C@@H](CC(C)(C)C)C(=O)N2 (stereo partly drawn) [I-894]", 1.45],
  ["CC(=O)N1CCC[C@]12CC=CCCCC1(CCCC=CCCCCCC[C@@](C)(C(=O)N[C@@H](Cc3ccccc3C(N)=O)C(=O)N[C@@H](Cc3csc4ccccc34)C(=O)N[C@@H](Cc3c[nH]cn3)C(N)=O)NC(=O)[C@H](CC(N)=O)NC(=O)[C@H](Cc3ccccc3)NC(=O)[C@H](C)NC(=O)[C@H](C)NC(=O)[C@H](CCC(=O)O)NC(=O)[C@H](CC(=O)O)NC1=O)NC(=O)[C@H](C)NC(=O)[C@H](CC(=O)O)NC2=O (stereo partly drawn) [I-513]", 1.57]
]}

[Q] Name the reported chromatographic logD value associated with the compound CC(=O)N1CCC[C@]12CC=CCCCC1(CCCC=CCCCOC(=O)N3CC[C@@](C(=O)N[C@@H](Cc4ccsc4)C(=O)N[C@@H](Cc4csc5ccccc45)C(=O)N[C@@H](CCC(N)=O)C(N)=O)(C3)NC(=O)[C@H](CC(N)=O)NC(=O)[C@H](Cc3ccccc3)NC(=O)[C@H](C)NC(=O)[C@H](C)NC(=O)[C@H](CC(N)=O)NC(=O)[C@H](CC(=O)O)NC1=O)NC(=O)[C@H](CC(C)(C)C)NC(=O)[C@H](CC(=O)O)NC2=O (stereo partly drawn) [I-836]
[A] 2.22
